Organism: Rattus norvegicus
Test: Open TG-GATES - Regimen: Daily Repeat
Type: toxicity, organism-based, Sprague-Dawley
Design: regimen Daily Repeat, gender Male, age 6 weeks
Conditions: in vivo, po, 0 mg/kg, 72 h, tissue Liver, route gavage, dose level Control, time 3 day
metric: LIVER (g)
Express it in g; write the number only.

Consider the reported LIVER for these compounds:
compound: C[C@H](CS)C(=O)N1CCC[C@H]1C(=O)O [CAPTOPRIL]
LIVER / g: 11.9

compound: NC(=O)N1c2ccccc2C=Cc2ccccc21 [CARBAMAZEPINE]
LIVER / g: 11.5

Please find the next compound below.
# input Return reported LIVER; argument: CO[C@H]1/C=C/O[C@@]2(C)Oc3c(C)c(O)c4c(O)c(c(/C=N/N5CCN(C)CC5)c(O)c4c3C2=O)NC(=O)/C(C)=C\C=C\[C@H](C)[C@H](O)[C@@H](C)[C@@H](O)[C@@H](C)[C@H](OC(C)=O)[C@@H]1C [RIFAMPIN]
# output 12.4

---

Quick reference for Bas among some compounds
Species on record: Rattus norvegicus
Assay: Open TG-GATES - Regimen: Single
Type: toxicity, organism-based, Sprague-Dawley
Set-up: regimen Single, gender Male, age 6 weeks
Conditions: in vivo, po, 1000 mg/kg, 9 h, tissue Blood, route gavage, dose level High
Express it in %; write the number only.

compound: O=C(O)c1cn(C2CC2)c2cc(N3CCNCC3)c(F)cc2c1=O
Bas / %: 0

compound: C[C@H](CS)C(=O)N1CCC[C@H]1C(=O)O
Bas / %: 0

compound: CCc1cc(C(N)=S)ccn1 [ETHIONAMIDE]
Bas / %: 0

# input Return reported Bas; argument: Clc1ccccc1CN1CCc2sccc2C1
# output 0.2

# input Return reported Bas; argument: O=C(O)c1cc(/N=N/c2ccc(S(=O)(=O)Nc3ccccn3)cc2)ccc1O
# output 0

---

Organism: Rattus norvegicus
Experiment: Open TG-GATES - Regimen: Single
Type: toxicity, organism-based, Sprague-Dawley
Set-up: regimen Single, gender Male, age 6 weeks
Details: in vivo, po, 100 mg/kg, 24 h, tissue Kidney, route gavage, dose level Low
metric: KIDNEY_TOTAL (g)
Express it in g; write the number only.

Consider the reported KIDNEY_TOTAL for these molecules:
molecule: Clc1ccccc1CN1CCc2sccc2C1
metric: KIDNEY_TOTAL
recordedNumber: 2
--
molecule: CCc1cc(C(N)=S)ccn1 [ETHIONAMIDE]
metric: KIDNEY_TOTAL
recordedNumber: 2.1
--
molecule: O=C(O)c1cc(/N=N/c2ccc(S(=O)(=O)Nc3ccccn3)cc2)ccc1O
metric: KIDNEY_TOTAL
recordedNumber: 2
--
molecule: O=C(O)c1cn(C2CC2)c2cc(N3CCNCC3)c(F)cc2c1=O
metric: KIDNEY_TOTAL
recordedNumber: 1.7

# input Return reported KIDNEY_TOTAL; argument: C[C@H](CS)C(=O)N1CCC[C@H]1C(=O)O
# output 2.3

---

Quick reference for TERMINAL_BW among some compounds
Organism: Rattus norvegicus
Experiment: Open TG-GATES - Regimen: Single
Type: toxicity, organism-based, Sprague-Dawley
Set-up: regimen Single, gender Male, age 6 weeks
Settings: in vivo, po, 300 mg/kg, 9 h, route gavage, dose level Middle
Express it in g; write the number only.

Consider the reported TERMINAL_BW for these compounds:
compound: Clc1ccccc1CN1CCc2sccc2C1 [TICLOPIDINE]
recordedNumber: 208.6

compound: O=C(O)c1cn(C2CC2)c2cc(N3CCNCC3)c(F)cc2c1=O [CIPROFLOXACIN]
recordedNumber: 176.2

compound: O=C(O)c1cc(/N=N/c2ccc(S(=O)(=O)Nc3ccccn3)cc2)ccc1O [SULFASALAZINE]
recordedNumber: 206.7

compound: CCc1cc(C(N)=S)ccn1 [ETHIONAMIDE]
recordedNumber: 224

Please find the next compound below.
# input Return reported TERMINAL_BW; argument: C[C@H](CS)C(=O)N1CCC[C@H]1C(=O)O [CAPTOPRIL]
# output 222.6
